STUDY_SYSTEM: T1, human ST2L extracellular domain with C-terminal His6 tag (human, UniProt Q01638 19-328)
T1 construct: also called huST2L-ECD; ST2L-ECD
T1 sequence: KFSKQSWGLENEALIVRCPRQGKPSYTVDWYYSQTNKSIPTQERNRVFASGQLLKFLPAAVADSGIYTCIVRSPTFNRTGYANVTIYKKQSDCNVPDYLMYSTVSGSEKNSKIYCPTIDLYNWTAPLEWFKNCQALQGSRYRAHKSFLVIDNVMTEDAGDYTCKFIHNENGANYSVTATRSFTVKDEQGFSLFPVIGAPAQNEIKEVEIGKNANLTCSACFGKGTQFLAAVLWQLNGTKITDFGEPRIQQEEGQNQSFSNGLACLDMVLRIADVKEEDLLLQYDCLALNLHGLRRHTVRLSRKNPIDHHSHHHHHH
TEST_SUMMARY: SPR, mAb captured, ST2L-ECD in solution

BINDER	UNIT_NAME	koff
STLM103 (antibody, V domains shown, frameworks VH3-23 / Vk-L6) VH: EVQLLESGGGLVQPGGSLRLSCAASGFTFSFYDMFWVRQAPGKGLEWVSSIRGEGGRTDYADSVKGRFTISRDNSKNTLYLQMNSLRAEDTAVYYCARDPWSTEGSFFVLDYWGQGTLVTVSS VL: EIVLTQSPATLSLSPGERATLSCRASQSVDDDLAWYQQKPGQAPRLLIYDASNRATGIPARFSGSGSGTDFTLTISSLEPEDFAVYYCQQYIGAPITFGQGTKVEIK	s⁻¹	0.000163
STLM227 (antibody, V domains shown, VH STLH201 + VL STLL277) VH: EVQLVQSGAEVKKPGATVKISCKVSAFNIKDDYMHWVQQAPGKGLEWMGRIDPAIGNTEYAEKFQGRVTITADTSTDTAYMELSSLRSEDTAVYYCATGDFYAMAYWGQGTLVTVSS VL: DIQLTQSPSFLSASVGDRVTITCITNTDIDDVIHWYQQKPGKAPKLLIYEGNTLRPGVPSRFSGSGSGTEFTLTISSLQPEDFATYYCLQSDNMLTFGQGTKLEIK	s⁻¹	0.0017
STLM217 (antibody, V domains shown, frameworks VH3-23 / Vk-L6) VH: EVQLLESGGGLVQPGGSLRLSCAASGFTFSVYDMFWVRQAPGKGLEWVSDIKGEGGETSYADSVKGRFTISRDNSKNTLYLQMNSLRAEDTAVYYCARDPWSTEGSFFVLDYWGQGTLVTVSS VL: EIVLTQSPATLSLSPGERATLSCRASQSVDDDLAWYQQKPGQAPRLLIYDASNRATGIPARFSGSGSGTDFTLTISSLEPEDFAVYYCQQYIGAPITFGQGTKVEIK	s⁻¹	0.000126
